assay-system: T1, c-Met-Fc chimera protein (UniProt P08581 25-932, limits assumed)
T1 construct: Captured on the SPR chip by an anti-IgG antibody; not shown: Fc part
T1 sequence (P08581 25-932 limits assumed, change not shown): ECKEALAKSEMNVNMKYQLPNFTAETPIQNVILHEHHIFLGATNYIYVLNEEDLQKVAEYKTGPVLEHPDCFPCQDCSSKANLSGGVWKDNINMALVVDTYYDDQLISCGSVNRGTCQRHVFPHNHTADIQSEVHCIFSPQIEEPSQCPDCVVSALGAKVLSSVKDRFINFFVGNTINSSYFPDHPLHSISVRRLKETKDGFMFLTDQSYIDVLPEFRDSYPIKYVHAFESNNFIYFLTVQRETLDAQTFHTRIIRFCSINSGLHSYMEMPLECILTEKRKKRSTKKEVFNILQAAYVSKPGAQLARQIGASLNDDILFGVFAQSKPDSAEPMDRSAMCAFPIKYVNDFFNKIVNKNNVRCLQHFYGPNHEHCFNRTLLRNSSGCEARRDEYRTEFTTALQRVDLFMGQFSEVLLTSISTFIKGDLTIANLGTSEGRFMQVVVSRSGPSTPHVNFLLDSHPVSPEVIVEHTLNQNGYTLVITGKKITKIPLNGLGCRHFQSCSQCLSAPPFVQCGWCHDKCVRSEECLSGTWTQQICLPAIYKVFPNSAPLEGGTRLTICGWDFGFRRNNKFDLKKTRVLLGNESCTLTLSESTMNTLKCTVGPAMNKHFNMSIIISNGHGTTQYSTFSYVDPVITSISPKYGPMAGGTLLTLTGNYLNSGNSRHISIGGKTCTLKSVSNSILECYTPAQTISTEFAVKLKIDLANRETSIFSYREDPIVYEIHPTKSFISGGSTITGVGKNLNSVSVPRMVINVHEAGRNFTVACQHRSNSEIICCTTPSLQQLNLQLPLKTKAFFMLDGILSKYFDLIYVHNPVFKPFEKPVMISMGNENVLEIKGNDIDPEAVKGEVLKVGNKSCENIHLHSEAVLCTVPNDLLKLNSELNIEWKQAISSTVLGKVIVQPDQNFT
experimental-details: SPR (Biacore), c-Met-Fc captured by anti-IgG on CM5, single-cycle kinetics
Bridges are numbered along the chain shown (N, C = ends). Where no end group is shown, it is not given here. [ ]: non-standard residue; d: D form. NMeR = CN[C@@H](CCCNC(=N)N)C(=O)O; NMeC = CN[C@@H](CS)C(=O)O
assay-readout: kon
Express your answer as a number followed by its unit.

Here's what some known entries look like.
- {CH2CO}-YRQFNRRTHEVWNLDCG (thioether N-16; not fully specified, also called D4-3 peptide; D4-3 Monomer) [D4-3]: 2.4e+06 M⁻¹ s⁻¹
- {CH2CO}-YRQFN[NMeR]RTHEVWNLD[NMeC]G (thioether N-16, also called NMe (N6 + N16); N-methylated D4-3) [D4-3NMe]: 390000 M⁻¹ s⁻¹
- {CH2CO}-[dY]WYYAWDQTYKAFPCG (thioether N-15, also called D5-4 peptide; D5-4 Monomer) [D5-4]: 4.5e+06 M⁻¹ s⁻¹

Exercise: Provide measured kon value, entry: {CH2CO}-YISWNEFNSPNWRFITCG (thioether N-17, also called L5-2 peptide; L5-2 Monomer) [L5-2]
Solution: 2.3e+06 M⁻¹ s⁻¹
